Cited source for all entries: patent US20260070922A1

# testTarget: human orexin-2 receptor (OX2R) (Homo sapiens)
# Construct: expressed in transfected cells; host or cells: CHO cells (G418 selection)
# Sequence (O43614 1-444): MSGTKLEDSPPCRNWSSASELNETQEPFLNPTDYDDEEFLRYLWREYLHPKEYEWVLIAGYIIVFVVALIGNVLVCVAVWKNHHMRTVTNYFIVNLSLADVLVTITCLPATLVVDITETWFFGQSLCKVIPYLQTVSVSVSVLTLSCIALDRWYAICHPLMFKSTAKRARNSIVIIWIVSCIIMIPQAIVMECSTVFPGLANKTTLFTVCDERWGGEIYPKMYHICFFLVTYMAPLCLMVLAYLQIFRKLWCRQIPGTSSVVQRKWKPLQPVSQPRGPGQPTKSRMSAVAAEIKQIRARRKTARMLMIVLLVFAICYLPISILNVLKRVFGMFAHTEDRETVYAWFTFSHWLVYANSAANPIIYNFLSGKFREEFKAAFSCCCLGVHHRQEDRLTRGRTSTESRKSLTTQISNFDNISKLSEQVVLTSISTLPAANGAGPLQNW
# assayName: In vitro orexin antagonism assay: intracellular calcium measurement (FLIPR), orexin-A 3 nM as agonist
# Type: cell-based
# testConditions: read-out: OX2R, % Inh. @ 1 uM
Please respond with reported inhibition at 1 µM for every item in the list.
# output: bare number, implied unit %

Qu. Which inhibition at 1 µM is reported for this compound? O=C(c1c(-c2ccccn2)nn2ccccc12)N1CCC[C@H]1Cn1ccc(-c2ccccn2)n1 [Example 139]
Ans. 82

Qu. Which inhibition at 1 µM is reported for this compound? C[C@@]1(COc2cnc(C(F)(F)F)cn2)CCCN1C(=O)c1c(-c2ccccc2)nn2cccnc12 [Example 168]
Ans. 28

Qu. Which inhibition at 1 µM is reported for this compound? O=C(c1c(-c2ccc(F)cc2)nn2ccccc12)N1CCC[C@H]1COc1ccc(C(F)(F)F)cn1 [Example 43]
Ans. 28.3

Qu. Which inhibition at 1 µM is reported for this compound? O=C(c1c(-c2ncccn2)nn2ccccc12)N1C2CCC1(COc1ccc(C(F)(F)F)cn1)CC2 [Example 161]
Ans. 6

Qu. Which inhibition at 1 µM is reported for this compound? O=C(c1c(-c2ccccc2F)nn2c1COCC2)N1CCC[C@H]1Cn1ccc(-c2ccccn2)n1 [Example 70]
Ans. 35

Qu. Which inhibition at 1 µM is reported for this compound? O=C(c1c(-c2ccccc2)nn2c1COCC2)N1CCCC[C@H]1CNc1ccc(C(F)(F)F)cn1 [Example 27]
Ans. 50.4

Qu. Which inhibition at 1 µM is reported for this compound? O=C(c1c(-c2ccccc2)nc2ccccn12)N1CCCC[C@H]1COc1ccc(C(F)(F)F)cn1 [Example 45]
Ans. 38.8

Qu. Which inhibition at 1 µM is reported for this compound? O=C(c1c(-c2ccccn2)nn2ccccc12)N1CCC[C@H]1Cn1cc(-c2ccc(F)cn2)cn1 [Example 206]
Ans. 83

Qu. Which inhibition at 1 µM is reported for this compound? O=C(c1c(-c2ccccc2)nc2cc(C(F)(F)F)ccn12)N1CC[C@H]1Cn1ccc(-c2ccc(F)cc2)n1 [Example 102]
Ans. 60

Qu. Which inhibition at 1 µM is reported for this compound? O=C(c1c(-c2ccccc2F)nn2ccccc12)N1CCC[C@H]1Cn1cc(-c2ccccc2)cn1 [Example 69]
Ans. 86

Qu. Which inhibition at 1 µM is reported for this compound? O=C(c1c(-c2ccccc2)nc2ccccn12)N1CCC[C@H]1COc1ccc(Br)nc1 [Example 38]
Ans. -6.1

Qu. Which inhibition at 1 µM is reported for this compound? O=C(c1c(-c2ccccc2F)nn2ccccc12)N1[C@H](Cn2ccc(-c3ccc(F)cn3)n2)C[C@@H]2C[C@@H]21 [Example 107]
Ans. 55

Qu. Which inhibition at 1 µM is reported for this compound? O=C(c1c(-c2ccccc2F)nn2ccccc12)N1CCC[C@H]1Cn1cc(-c2ccc(F)cn2)cn1 [Example 82]
Ans. 74

Qu. Which inhibition at 1 µM is reported for this compound? O=C(c1nc2ccccn2c1-c1ccccc1)N1CCC[C@H]1Cc1nc(-c2ccc(F)cn2)no1 [Example 127]
Ans. 31

Qu. Which inhibition at 1 µM is reported for this compound? O=C(c1c(-c2ccccc2)nc2ccccn12)N1CCCC[C@H]1CNc1ccc(C(F)(F)F)cn1 [Example 26]
Ans. 39.4

----------
Please respond with reported inhibition at 1 µM for every item in the list.
# testTarget: Orexin type 1 (OX1R) receptor (Homo sapiens, UniProt O43613)
# Construct: expressed in transfected cells; host or cells: CHO cells (G418 selection)
# Sequence (O43613 whole entry): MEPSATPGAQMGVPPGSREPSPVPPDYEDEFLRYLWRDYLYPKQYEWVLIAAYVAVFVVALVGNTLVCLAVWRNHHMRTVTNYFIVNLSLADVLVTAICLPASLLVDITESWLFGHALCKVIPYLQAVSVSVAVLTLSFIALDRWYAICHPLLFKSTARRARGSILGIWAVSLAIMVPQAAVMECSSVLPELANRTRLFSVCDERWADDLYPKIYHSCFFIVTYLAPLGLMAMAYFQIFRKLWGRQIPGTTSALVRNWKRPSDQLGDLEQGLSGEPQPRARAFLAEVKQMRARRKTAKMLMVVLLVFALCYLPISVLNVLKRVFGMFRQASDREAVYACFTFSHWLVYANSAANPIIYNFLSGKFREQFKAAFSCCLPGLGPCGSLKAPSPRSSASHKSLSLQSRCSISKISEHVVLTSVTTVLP
# assayName: In vitro orexin antagonism assay: intracellular calcium measurement (FLIPR), orexin-A 3 nM as agonist
# Type: cell-based
# testConditions: read-out: OX1R, % Inh. @ 1 uM

Qu. Which inhibition at 1 µM is reported for this compound? "O=C(c1c(-c2ncccn2)nn2ccccc12)N1CCC[C@H]1Cn1ccc(-c2ccccn2)n1"
Ans. 100%

Qu. Which inhibition at 1 µM is reported for this compound? "O=C(c1c(-c2ccccc2)nc2cc(C(F)(F)F)ccn12)N1CCC[C@H]1Cn1ccc(-c2ccccn2)n1"
Ans. 78%

Qu. Which inhibition at 1 µM is reported for this compound? "O=C(c1c(-c2ccccc2F)nn2c1COCC2)N1CC[C@H]1Cn1ccc(-c2ccc(F)cn2)n1"
Ans. 8%

Qu. Which inhibition at 1 µM is reported for this compound? "C[C@@]1(COc2ccc(C(F)(F)F)cn2)CCCN1C(=O)c1nn2c(c1-c1ccccc1)OCCC2"
Ans. 100%

Qu. Which inhibition at 1 µM is reported for this compound? "O=C(c1nc2ccccn2c1-c1ccccn1)N1CCC[C@H]1Cn1ccc(-c2ccccn2)n1"
Ans. 97%

Qu. Which inhibition at 1 µM is reported for this compound? "O=C(c1c(-c2ccccc2)nn2ccccc12)N1CCC[C@H]1CNc1ncc(F)cn1"
Ans. 23%

Qu. Which inhibition at 1 µM is reported for this compound? "C[C@@H]1CCCN(C(=O)c2c(-c3ccccc3)nc3ncccn23)[C@@H]1CNc1ccc(C(F)(F)F)cn1"
Ans. 79.8%

Qu. Which inhibition at 1 µM is reported for this compound? "O=C(c1nn2c(c1-c1ccccn1)CCOC2)N1CCC[C@H]1Cc1nc(-c2ccccn2)no1"
Ans. 56%

Qu. Which inhibition at 1 µM is reported for this compound? "O=C(c1c(-c2ccccc2)nc2ccc(F)cn12)N1CC[C@H]1Cn1ccc(-c2ccc(F)cn2)n1"
Ans. 5%

Qu. Which inhibition at 1 µM is reported for this compound? "C[C@@]1(COc2cnc(C(F)(F)F)cn2)CCCN1C(=O)c1nn2ccccc2c1-c1ccccc1"
Ans. 85%

Qu. Which inhibition at 1 µM is reported for this compound? "O=C(c1c(-c2ccccc2)nn2c1COCC2)N1CCCC[C@H]1COc1ccc(C(F)(F)F)cn1"
Ans. 94.8%

Qu. Which inhibition at 1 µM is reported for this compound? "O=C(c1c(-c2ccccc2)nn2c1COCC2)N1CCC[C@H]1Cn1cc(-c2ccc(F)cn2)cn1"
Ans. 19%

Qu. Which inhibition at 1 µM is reported for this compound? "O=C(c1c(-c2ccccc2)nn2ccccc12)N1CCOC[C@H]1COc1ccc(C(F)(F)F)cn1"
Ans. 14%

Qu. Which inhibition at 1 µM is reported for this compound? "O=C(c1nn2cccnc2c1-c1ccccn1)N1CCC[C@H]1Cn1cc(-c2ccc(F)cn2)cn1"
Ans. 89%

Qu. Which inhibition at 1 µM is reported for this compound? "O=C(c1c(-c2ccccc2)nn2ccccc12)N1CCCC[C@H]1CNc1ccc(C(F)(F)F)cn1"
Ans. 99.8%

----------
# testTarget: human orexin-2 receptor (OX2R) (Homo sapiens)
# assayName: In vitro orexin antagonism assay: intracellular calcium measurement (FLIPR), orexin-A 3 nM as agonist
# testConditions: first value of IC50/Kb cell
IC50 strictly under 200 nM means met; at 200 nM or over means not met.

Qu. For "O=C(c1c(-c2ccc(F)cc2)nc2ccccn12)N1CCC[C@H]1Cn1ccc(-c2ccc(F)cc2)n1" , is the recorded IC50 below the cut-off of 200 nM?
Ans. met

Qu. For "O=C(c1c(-c2ccccc2F)nn2ccccc12)N1CCC[C@H]1Cn1ccc(-c2ccc(F)cn2)n1" , is the recorded IC50 below the cut-off of 200 nM?
Ans. met

Qu. For "O=C(c1c(-c2ccccc2)nc2cc(C(F)(F)F)ccn12)N1CCC[C@H]1Cn1cc(-c2ccccc2)cn1" , is the recorded IC50 below the cut-off of 200 nM?
Ans. met

Qu. For "O=C(c1nn2ccccc2c1-c1ccccn1)N1CCC[C@H]1Cn1cc(-c2ccccn2)cn1" , is the recorded IC50 below the cut-off of 200 nM?
Ans. not met

Qu. For "O=C(c1c(-c2ccccc2)nc2ccc(F)cn12)N1CCC[C@H]1Cn1ccc(-c2ccc(F)cc2)n1" , is the recorded IC50 below the cut-off of 200 nM?
Ans. met

Qu. For "O=C(c1c(-c2ccccc2F)nn2ccccc12)N1CCC[C@H]1Cn1ccc(-c2ccccn2)n1" , is the recorded IC50 below the cut-off of 200 nM?
Ans. met

Qu. For "O=C(c1c(-c2ccccn2)nn2ccccc12)N1CCC[C@H]1Cn1cc(-c2ccc(F)cn2)cn1" , is the recorded IC50 below the cut-off of 200 nM?
Ans. met

Qu. For "O=C(c1c(-c2ccccc2)nc2ccc(F)cn12)N1CCC[C@H]1Cn1cc(-c2ccccc2)cn1" , is the recorded IC50 below the cut-off of 200 nM?
Ans. met

Qu. For "O=C(c1c(-c2ccccc2F)nn2ccccc12)N1CCC[C@H]1COc1ccc(C(F)(F)F)cn1" , is the recorded IC50 below the cut-off of 200 nM?
Ans. not met

Qu. For "O=C(c1nn2ccccc2c1-c1ccccc1)N1CCC[C@H]1Cn1ccc(-c2ccc(F)cn2)n1" , is the recorded IC50 below the cut-off of 200 nM?
Ans. met

Qu. For "O=C(c1c(-c2ccccn2)nn2ccccc12)N1CCC[C@H]1Cn1ccc(-c2ccccc2)n1" , is the recorded IC50 below the cut-off of 200 nM?
Ans. met

Qu. For "O=C(c1c(-c2ccccc2F)nn2c1COCC2)N1CCC[C@H]1Cn1ccc(-c2ccc(F)cc2)n1" , is the recorded IC50 below the cut-off of 200 nM?
Ans. met

Qu. For "O=C(c1c(-c2ccccc2)nc2cc(F)ccn12)N1CCC[C@H]1Cn1ccc(-c2ccc(F)cc2)n1" , is the recorded IC50 below the cut-off of 200 nM?
Ans. met

Qu. For "O=C(c1c(-c2ccccc2F)nn2ccccc12)N1CCC[C@H]1Cn1ccc(-c2ccc(F)cc2)n1" , is the recorded IC50 below the cut-off of 200 nM?
Ans. met

Qu. For "O=C(c1c(-c2ccccc2)nn2cccnc12)N1CCC[C@H]1Cn1ccc(-c2ccccn2)n1" , is the recorded IC50 below the cut-off of 200 nM?
Ans. met

Qu. For "O=C(c1c(-c2ccccc2)nn2ccccc12)N1[C@@H]2CC[C@@H](C2)[C@H]1COc1ccc(C(F)(F)F)cn1" , is the recorded IC50 below the cut-off of 200 nM?
Ans. not met

Qu. For "O=C(c1nc2ccccn2c1-c1ccccc1)N1[C@@H]2CC[C@@H](C2)[C@H]1COc1ccc(C(F)(F)F)cn1" , is the recorded IC50 below the cut-off of 200 nM?
Ans. met

Qu. For "O=C(c1c(-c2ccccc2F)nc2ccccn12)N1CCC[C@H]1Cn1ccc(-c2ccc(F)cc2)n1" , is the recorded IC50 below the cut-off of 200 nM?
Ans. met

Qu. For "O=C(c1c(-c2ncccn2)nn2ccccc12)N1CCC[C@H]1Cn1ccc(-c2ccccc2)n1" , is the recorded IC50 below the cut-off of 200 nM?
Ans. met

Qu. For "O=C(c1c(-c2ccccc2)nn2ccccc12)N1CCCC[C@H]1CNc1ccc(C(F)(F)F)cn1" , is the recorded IC50 below the cut-off of 200 nM?
Ans. met

Qu. For "O=C(c1nn2c(c1-c1ccccc1)OCCC2)N1CCC[C@H]1Cn1ccc(-c2ccccc2)n1" , is the recorded IC50 below the cut-off of 200 nM?
Ans. met

Qu. For "O=C(c1c(-c2ccccc2)nc2cc(C(F)(F)F)ccn12)N1CCC[C@H]1Cn1cc(-c2ccccn2)cn1" , is the recorded IC50 below the cut-off of 200 nM?
Ans. met

Qu. For "O=C(c1c(-c2ccccn2)nn2ccccc12)N1CCC[C@H]1Cn1ccc(-c2ccccn2)n1" , is the recorded IC50 below the cut-off of 200 nM?
Ans. met

Qu. For "O=C(c1c(-c2ncccn2)nn2ccccc12)N1CCC[C@H]1Cn1ccc(-c2ccccn2)n1" , is the recorded IC50 below the cut-off of 200 nM?
Ans. not met

Qu. For "O=C(c1c(-c2ccccc2)nc2ccc(F)cn12)N1CCC[C@H]1Cn1ccc(-c2ccc(F)cn2)n1" , is the recorded IC50 below the cut-off of 200 nM?
Ans. not met

Qu. For "O=C(c1c(-c2ccccc2)nc2cc(C(F)(F)F)ccn12)N1CCC[C@H]1Cn1ccc(-c2ccccn2)n1" , is the recorded IC50 below the cut-off of 200 nM?
Ans. not met

Qu. For "O=C(c1nn2ccccc2c1-c1ccccc1)N1CCC[C@H]1CNc1ccc(C(F)(F)F)cn1" , is the recorded IC50 below the cut-off of 200 nM?
Ans. met

Qu. For "O=C(c1c(-c2ccccc2)nc2cc(C(F)(F)F)ccn12)N1CC[C@H]1Cn1ccc(-c2ccc(F)cc2)n1" , is the recorded IC50 below the cut-off of 200 nM?
Ans. not met

Qu. For "O=C(c1c(-c2ccccc2F)nn2ccccc12)N1CCC[C@H]1Cn1cc(-c2ccccc2)cn1" , is the recorded IC50 below the cut-off of 200 nM?
Ans. met

Qu. For "O=C(c1c(-c2ccccc2F)nn2ccccc12)N1[C@H](Cn2ccc(-c3ccc(F)cn3)n2)C[C@@H]2C[C@@H]21" , is the recorded IC50 below the cut-off of 200 nM?
Ans. not met
